# System: COLO 205 colon
# Measurement Description: NCI-60 one-dose screen, 48 h (100 = growth as untreated, 0 = no growth, -100 = all killed)
# Recorded Conditions: 10 µM
About 83,000 compounds went through this panel and 20% of them were active in at least one assay; those are over-represented in the sample as a whole.
In plain terms, low growth, meaning strictly below 70%, gives met, and everything else gives not met.

| Compound | Class |
| --- | --- |
| CC(C)c1ccc(C(C)C(=O)N(CC2=C(C(C)c3ccccn3)c3ccccc3C2)C(C)C)cc1 (stereo not given) | met |
| C[N+]1(CCCCC[N+]2(C)CCCC2)CCCC1 | not met |
| Nc1cc(Br)c(-c2nn3c(CCC(=O)c4nc5ccccc5[nH]4)nnc3s2)c(Br)c1 | not met |

## Input Please check: growth for COc1cc(-c2ccc[nH]2)[nH]c1/C=C1\N=C(C)C(C(=O)NC(C)C)=C1C , strictly under 70% or not?
## Output met

====

# Tested on: MCF7 breast
# Measurement Description: NCI-60 one-dose screen, 48 h (100 = growth as untreated, 0 = no growth, -100 = all killed)
# Recorded Conditions: 10 µM
About 83,000 compounds went through this panel and 20% of them were active in at least one assay; those are over-represented in the sample as a whole.
Measured Attribute: growth (%)
API: value field is a number in %; no unit string.

Some compounds with recorded growth:
| Compound | Unit Annotation | growth |
| --- | --- | --- |
| COc1ccc(-c2cc(-c3ccc(Cl)cc3)nc(SCCCCCCC(=O)NO)n2)cc1OC | % | 24.6 |
| COc1ccc2c(c1)C(=O)/C(=C/c1ncc([N+](=O)[O-])n1C)O2 | % | 5.2 |
| COc1cc2c(cc1OC)C(C(CCCCCC(CCC(C)C)C1NCCc3cc(OC)c(OC)cc31)CCC(C)C)NCC2 (stereo not given) | % | -92.7 |
| COc1ccc(/C=C2\CCCC3C2=Nc2ccccc2NC3c2ccc(OC)cc2)cc1 (stereo not given) | % | 56.1 |
| Cc1c(C(N)=O)sc2c1c(=O)n(Cc1ccccc1)c1nnc(-c3ccc(Br)cc3)n21 | % | 21.5 |

## Input Consider the compound shown here: NS(=O)(=O)c1ccc(N2N=C(c3ccccc3)CCC2=O)cc1 What is its recorded growth?
## Output 95.4

## Input Consider the compound shown here: CS(=O)(=O)c1nccc(-c2c(-c3cccc(OCc4ccc(F)cc4)c3)nc3sccn23)n1 What is its recorded growth?
## Output 69.5

## Input Consider the compound shown here: OC(CCN1CCCC1)(c1ccccc1)C1CCCCC1 (stereo not given) What is its recorded growth?
## Output 101

## Input Consider the compound shown here: Cn1cnc([N+](=O)[O-])c1/C=C1\Oc2ccc(Br)cc2C1=O What is its recorded growth?
## Output 47.9

## Input Consider the compound shown here: Nc1nc(Cn2c(-c3nonc3N)nc3ccccc32)nc(N2CCCCC2)n1 What is its recorded growth?
## Output 83.5

## Input Consider the compound shown here: COc1ccc(C(=O)N/N=C/c2cc(C(F)(F)F)ccc2Cl)cc1 What is its recorded growth?
## Output 60.3

## Input Consider the compound shown here: O=[N+]([O-])c1ccc(NCSc2ccc(Cl)cc2)cc1 What is its recorded growth?
## Output 95

## Input Consider the compound shown here: Cc1c(Cl)cccc1NC(=O)CN1CCOCC1 What is its recorded growth?
## Output 98.1

## Input Consider the compound shown here: C=CCn1c(SCC(=O)Nc2ccc(C(=O)/C=C/c3ccc(Cl)cc3)cc2)nnc1-c1cc(-c2ccccc2)nc2ccccc12 What is its recorded growth?
## Output 12.2

## Input Consider the compound shown here: Nc1ncnc2c1ncn2C1(CO)OCC(O)C(O)C1O (stereo not given) What is its recorded growth?
## Output 101

## Input Consider the compound shown here: CCOC(=O)c1cc(C(=O)c2cc(OC)c(OC)c(OC)c2)n2ncc3ccccc3c12 What is its recorded growth?
## Output 30.4

## Input Consider the compound shown here: CCCN1CN2C(=O)N3CN(CCC)CN4C(=S)N(C1)C2C34 (stereo not given) What is its recorded growth?
## Output 87.7

## Input Consider the compound shown here: O=[N+]([O-])c1cccc(/C=N/NC(=S)NC23CC4CC(CC(C4)C2)C3)c1 What is its recorded growth?
## Output 66.9

## Input Consider the compound shown here: CCOC(=O)C1=CSC2=NC3=C(CCC/C3=C\c3cc(OC)c(OC)c(OC)c3)C(c3cc(OC)c(OC)c(OC)c3)N12 (stereo not given) What is its recorded growth?
## Output 29.9

## Input Consider the compound shown here: COc1cc(-c2ccc[nH]2)[nH]c1/C=C1\N=C(C)C(C(=O)NC(C)C)=C1C What is its recorded growth?
## Output 7.83
